- Test system: NPC1 promoter
- EXPERIMENT: qHTS of NPC1 Promoter-Luciferase Reporter Gene Assay (firefly, Huh7)
- Format: cell-based, human
- MEASUREMENT PARAMETERS: 24 hours
QUANTITY MEASURED: NPC1 Eff. (%)
The reply should be a number in %, with the unit left off.

Some solved entries appear below for comparison.
# COMPOUND, SYSTEM, UNIT ABBREV, NPC1 Eff.
measured = [
    ("CCc1ccc(NC(=O)c2[nH]c(C)c(C(C)=O)c2C)cc1S(=O)(=O)Nc1ccc(Br)cc1 [Example 35]", "NPC1 promoter", "%", 208),
    ("CC(=O)c1c(C)[nH]c(C(=O)Nc2cccc(S(=O)(=O)N3CCCC3)c2)c1C [Example 3]", "NPC1 promoter", "%", 112),
]

We now examine a further compound.
Look up NPC1 Eff. of Cc1cc(C)c(C(=O)Nc2cccc(S(=O)(=O)N(C)C)c2)[nH]1 [Example 8] and report it. 48

###

- SYSTEM: NPC1 promoter
- EXPERIMENT: Confirmation Assay of NPC1 Promoter Activators: Renilla Luciferase (Huh7)
- Type: cell-based, human
- MEASUREMENT PARAMETERS: 24 hours
QUANTITY MEASURED: EC50 (µM)
Reply with just the number (in µM).

Answer with the recorded EC50 of COc1ccc(NC(=O)C23CC4CC(CC(C4)C2)C3)cc1S(=O)(=O)Nc1ccc(Br)cc1 only. 2.7

###

The entries below come with measured pEC50 values attached.
- SYSTEM: Rab9 promoter
- EXPERIMENT: qHTS of Rab9 Promoter-Luciferase Reporter Gene Assay (firefly, Huh7)
- MEASUREMENT PARAMETERS: 24 hours
Here pEC50 is given on a logarithmic scale as minus log10 of the concentration in mol/L.

Known results for compounds:
# COMPOUND STRUCTURE, VALUE MEASURED
data = [
    ("Cc1ccccc1C(=O)Nc1cccc(S(=O)(=O)N(C)C)c1", 4.76),
    ("CC(=O)c1ccc(C(=O)Nc2cccc(S(=O)(=O)N(C)C)c2)cc1", 4.96),
]

Determine reported pEC50 for CC(=O)c1c(C)[nH]c(C(=O)Nc2cccc(S(=O)(=O)N3CCCCCC3)c2)c1C ; test system: Rab9 promoter. 5.70

Fill in: pEC50 on Rab9 promoter, entry CCN(CC)S(=O)(=O)c1cccc(NC(=O)c2[nH]c(C)c(C(C)=O)c2C)c1 5.06

Supply pEC50 measured with Rab9 promoter for Cc1ccc(C(=O)Nc2cccc(S(=O)(=O)N(C)C)c2)cc1 . 5.16

For Rab9 promoter, give the measured pEC50 of the entry CC(=O)c1c(C)[nH]c(C(=O)Nc2cccc(S(=O)(=O)N3CCCC3)c2)c1C 5.11

Look up and report pEC50, with Rab9 promoter as system, for CN(C)S(=O)(=O)c1cccc(NC(=O)c2ccccc2C(F)(F)F)c1 5.85

###

Catalogue of Rab9 Eff. values
- Tested on: Rab9 promoter
- EXPERIMENT: qHTS of Rab9 Promoter-Luciferase Reporter Gene Assay (firefly, Huh7)
- Type: cell-based, human
- MEASUREMENT PARAMETERS: 24 hours
// return numeric value only (unit: %, not printed)

These recorded examples may help you get a feel for the data.
# COMPOUND, Rab9 Eff. (%)
records = [
    ("Cc1ccccc1C(=O)Nc1cccc(S(=O)(=O)N(C)C)c1 [Example 14]", 114),
    ("CCN(CC)S(=O)(=O)c1cccc(NC(=O)c2[nH]c(C)c(C(C)=O)c2C)c1 [Example 2]", 181),
]

We next turn to a different compound, shown below.
Quote Rab9 Eff. reported for CC(=O)c1c(C)[nH]c(C(=O)Nc2cccc(S(=O)(=O)N3CCN(C)CC3)c2)c1C [Example 6] please. 82
